Molecular target: human secretin receptor (hSCTR) (human, UniProt P47872 23-440)
Sequence (P47872 23-440): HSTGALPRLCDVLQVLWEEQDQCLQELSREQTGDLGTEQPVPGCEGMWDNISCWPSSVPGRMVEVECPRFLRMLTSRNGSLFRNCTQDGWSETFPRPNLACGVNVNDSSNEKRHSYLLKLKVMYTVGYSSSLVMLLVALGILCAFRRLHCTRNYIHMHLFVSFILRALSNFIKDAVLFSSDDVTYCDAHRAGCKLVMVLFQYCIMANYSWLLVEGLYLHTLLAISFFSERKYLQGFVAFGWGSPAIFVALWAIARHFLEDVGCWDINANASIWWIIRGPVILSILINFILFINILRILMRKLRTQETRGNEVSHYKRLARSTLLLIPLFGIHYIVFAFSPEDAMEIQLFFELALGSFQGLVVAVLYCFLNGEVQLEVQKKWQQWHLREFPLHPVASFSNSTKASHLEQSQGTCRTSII
Assay: cell-based or functional assay
Numbered stars: 1 amine (or outer) side, 2 acyl side, 3 side chain; on linkers, the order of the positions; unused ones are H or OH. Square brackets hold non-standard residues; d marks the D form. Side chains are listed from the residue outwards. Ends that are not written are not given here. * marks the point of attachment. C20 diacid = O=C(O)CCCCCCCCCCCCCCCCCCC(=O)*; γGlu = O=C(O)[C@H](CCC(=O)[*:2])N[*:1]; AEEA = NCCOCCOCC(=O)O; Aib = CC(C)(N)C(=O)O
Assign pEC50 hSCTR to each entry below.

Task: What value of pEC50 hSCTR has been reported for the following binder? H[Aib]EGTFTSDVSYLK([AEEA-AEEA-γGlu-C20 diacid])EFAA[Aib]QRFLEHLV-NH2 [SEQ ID NO: 46]
Output: 5.4 -log M

Task: Now the same for H[Aib]EGTFTSDVSVLK([AEEA-AEEA-γGlu-C20 diacid])E[Aib]AATQRFLEHLV-NH2 [SEQ ID NO: 49]
Output: 6.9 -log M

Task: Repeat with H[Aib]EGTFTSDVSRLK([AEEA-AEEA-γGlu-C20 diacid])EEAATQRFLEHLV-NH2 [SEQ ID NO: 65]
Output: 7.6 -log M

Task: Another binder to look at: H[Aib]EGTFTSDVSTLKE[Aib]AAEQRFLEHLV-NH2 (not fully specified (residue 14)) [SEQ ID NO: 16]
Output: 6.9 -log M

Task: Next entry: H[Aib]EGTFTSDVSVLK([AEEA-AEEA-γGlu-C20 diacid])EEAA[Aib]QRFLEHLV-NH2 [SEQ ID NO: 35]
Output: 6.1 -log M

Task: Now this one: H[Aib]EGTFTSDVSRLK([AEEA-AEEA-γGlu-C20 diacid])EFAAAQRFLEHLV-NH2 [SEQ ID NO: 2]
Output: 6.3 -log M

Task: Try H[Aib]EGTFTSDVSHLKEEA[Aib]LQRFLEHLV-NH2 (not fully specified (residue 14); also: K14 lipidated with C20DA[γE][OEG][OEG]- or C18DA[γE][OEG][OEG]-) [SEQ ID NO: 145] next.
Output: 7.2 -log M

Task: Do the same for H[Aib]HGTFTSDVSYLK([AEEA-AEEA-γGlu-C20 diacid])EEA[Aib]LQRFLEHLV-NH2 [SEQ ID NO: 171] please
Output: 4.5 -log M

Task: Same again, this time with H[Aib]EGTFTSDVSELK([AEEA-AEEA-γGlu-C20 diacid])ELAATQRFLEHLV-NH2 [SEQ ID NO: 80]
Output: 6.1 -log M

Task: Ok, now H[Aib]EGTFTSDVSTLK([AEEA-AEEA-γGlu-C20 diacid])ETAAEQRFLEHLV-NH2 [SEQ ID NO: 42]
Output: 5.5 -log M

Task: Note, next up: H[Aib]EGTFTSDVSRLK([AEEA-AEEA-γGlu-C20 diacid])E[Aib]AATQRFLEHLV-NH2 [SEQ ID NO: 50]
Output: 7.3 -log M

Task: Next entry: H[Aib]EGTFTSDVSTLK([AEEA-AEEA-γGlu-C20 diacid])ELAATQRFLEHLV-NH2 [SEQ ID NO: 67]
Output: 6.4 -log M

Task: Param item: H[Aib]EGTFTSDVSYLK([AEEA-AEEA-γGlu-C20 diacid])EEAAQQRFLEHLV-NH2 [SEQ ID NO: 47]
Output: 6.6 -log M

Task: What do we get for H[Aib]EGTFTSDVSYLKEEA[Aib]EQRFLEHLV-NH2 (not fully specified (residue 14)) [SEQ ID NO: 150] ?
Output: 5.5 -log M

Task: Now try H[Aib]EGTFTSDVSYLKEEALLQRFLEHLV-NH2 (not fully specified (residue 14)) [SEQ ID NO: 132] .
Output: 6.7 -log M

Task: Again, but for H[Aib]YGTFTSDVSYLKEEA[Aib]LQRFLEHLV-NH2 (not fully specified (residue 14)) [SEQ ID NO: 159]
Output: 4.6 -log M

Task: H[Aib]EGTFTSDVSRLK([AEEA-AEEA-γGlu-C20 diacid])EEAAAQRFLEHLV-NH2 [SEQ ID NO: 60] ?
Output: 6.6 -log M

Task: Then what about the binder H[Aib]EGTFTSDVSYLK([AEEA-AEEA-γGlu-C20 diacid])EEA[Aib]LQRFLEHLV-NH2 (also: table footnote: C20DA or C18DA) [SEQ ID NO: 203] ?
Output: 6.7 -log M

Task: Now give it for H[Aib]EGTFTSDVSVLK([AEEA-AEEA-γGlu-C20 diacid])ETAAQQRFLEHLV-NH2 [SEQ ID NO: 41] too.
Output: 6.9 -log M

Task: Same read-out for H[Aib]EGTFTSDVSYLKEEA[Aib]TQRFLEHLV-NH2 (not fully specified (residue 14)) [SEQ ID NO: 162] ?
Output: 6.9 -log M

Task: Moving on to the next binder: H[Aib]EGTFTSDVSYLKEEA[Aib]LQRWLEHLV-NH2 (not fully specified (residue 14)) [SEQ ID NO: 135]
Output: 6.9 -log M

Task: What do we get for H[Aib]EGTFTSDVSVLK([AEEA-AEEA-γGlu-C20 diacid])EEAAQQRFLEHLV-NH2 [SEQ ID NO: 90] ?
Output: 5.8 -log M
